- System: EJ
- method summary: Endometrial cancer cell viability, EJ
- Format: cell-based
- assay context: Homo sapiens, 72 h
observable: IC50

Note to self: IC50 recorded for CCN(CC)CCCCNc1ncc2cc(-c3cc(OC)cc(OC)c3)c(NC(=O)NC(C)(C)C)nc2n1 [PD173074] was > 4 µM

---

- System: EN1078D
- method summary: Endometrial cancer cell viability, EN1078D
- Type: cell-based
- assay context: 72 h
pIC50: −log10 of the molar value.
observable: pIC50

Note to self: pIC50 recorded for CCN(CC)CCCCNc1ncc2cc(-c3cc(OC)cc(OC)c3)c(NC(=O)NC(C)(C)C)nc2n1 [PD173074] was < 5.40
